- Condition Summary: 363.15 K; 40000 kPa; Liquid; Vibrating tube method
± gives the expanded uncertainty stated by the source.
Experimental Readout: mass density

• CCCCC(=O)OC [methyl pentanoate] = 859.8 ± 0.95 kg/m3
• CCCC(=O)OC [methyl butanoate] = 864.61 ± 0.95 kg/m3
• CCCCCCCCC(=O)OC [methyl nonanoate] = 849.11 ± 0.95 kg/m3
• CCCCCCC(=O)OC [methyl heptanoate] = 853.33 ± 0.95 kg/m3
• CCCCCCCC(=O)OC [methyl octanoate] = 851.06 ± 0.95 kg/m3
• CCCCCC(=O)OC [methyl hexanoate] = 856.02 ± 0.95 kg/m3

The reported measurements were obtained from the NIST ThermoML archive (doi:10.1016/j.fluid.2018.04.024).
